Origin of values: ChEMBL document CHEMBL5058577

Please respond with reported Population Mitochondria Different-Phenotype (%) for every item in the list.
System: HEK-293T
Assay: Multiplex assay against HEK293T
Type: toxicity, cell-based
Conditions: human, 48 h, 10 µM, compound concentration 10 uM, replicate 2
Answers are plain numbers, in %.

Batch: Population Mitochondria Different-Phenotype (%) for all items listed.
1. COc1cccc2c1c(NS(=O)(=O)c1ccc(Cl)s1)nn2Cc1cccc(CNC(=O)C(C)(C)O)c1
2. Cc1c(CC(=O)O)c2cccnc2n1Cc1ccc(S(C)(=O)=O)cc1C(F)(F)F [FEVIPIPRANT]
3. Br.CS(=O)(=O)Nc1c(O)ccc2c1CCCC2C1=NCCN1 (stereo not given)
4. CN1CCN(c2cc(-c3ccccc3)nc(N)n2)CC1
5. Cc1noc(-c2ccc(-c3ccc(CC(=O)O)cc3)cc2)c1NC(=O)O[C@H](C)c1ccccc1Cl
6. CCCCCC(O)/C=C/[C@H]1C(=O)CC(O)C1C/C=C\CCCC(=O)O (stereo not given in full)

Reply:
1. 27
2. 22
3. 27
4. 24
5. 35
6. 26
